Give Inf. K: Rhizomucor miehei IHEM13391, pIC50 for every item shown.
tested on: Rhizomucor miehei; assay: Antifungal activity in vitro, resazurin growth inhibition: Rhizomucor miehei (IHEM13391); assay type: cell-based

Some compounds with known Inf. K: Rhizomucor miehei IHEM13391, pIC50 results, for comparison:
Lab book: Inf. K: Rhizomucor miehei IHEM13391, pIC50 of `CC(=O)c1ccc(C2=NCc3c(F)cc(F)cc3-n3cccc32)cn1` noted as <4.19

// field: Inf. K: Rhizomucor miehei IHEM13391, pIC50; key: `FC(F)(F)c1ncc(C2=NCc3c(Cl)cccc3-n3cccc32)cn1` ; value = <4.19

Briefly, Inf. K: Rhizomucor miehei IHEM13391, pIC50 measured for `Cc1cccc2c1-n1cccc1C(c1cc3ccccc3s1)=NC2` : 5.15

# Inf. K: Rhizomucor miehei IHEM13391, pIC50 (compound: `Clc1cc(Cl)c2c(c1)-n1cccc1C(c1cc3ccccc3s1)=NC2` ) is <4.19

Please fill in: Inf. K: Rhizomucor miehei IHEM13391, pIC50 reported for `Fc1cccc2cc(C3=NCc4c(Cl)cccc4-n4cccc43)sc12` = <4.19

For each listed entry, give its Inf. K: Rhizomucor miehei IHEM13391, pIC50.
1. Clc1cccc2c1CN=C(c1cnc3occc3c1)c1cccn1-2
2. Cc1ccc2cc(C3=NCc4c(Cl)cccc4-n4cccc43)oc2c1
3. CC(=O)c1ccc(C2=NCc3c(Cl)cccc3-n3cccc32)cn1
4. CC(C)n1ccc(C2=NCc3c(Cl)cccc3-n3cccc32)cc1=O

**A:**
1. <4.19
2. <4.19
3. <4.19
4. 4.52

---

test system: Sporothrix schenkii; test: Antifungal activity in vitro, resazurin growth inhibition: Sporothrix schenkii (B62482); format: cell-based
Please provide measured Inf. A: Sporothrix schenkii B62482, pIC50 for the entries that follow.
Give bare numbers.

Recorded Inf. A: Sporothrix schenkii B62482, pIC50, per entry:
Memo: Clc1cccc2c1-n1cccc1C(c1cc3ccccc3s1)=NC2 [Compound 167] , reported Inf. A: Sporothrix schenkii B62482, pIC50: 5.70

Inf. A: Sporothrix schenkii B62482, pIC50 recorded for this compound, Clc1ccc2c(c1)-n1cccc1C(c1cc3ccccc3o1)=NC2 [Compound 119] , is 6.00

Looking up Fc1ccc2oc(C3=NCc4c(Cl)cc(Cl)cc4-n4cccc43)cc2c1 [Compound 125] , I see its Inf. A: Sporothrix schenkii B62482, pIC50 listed as 4.91

Inf. A: Sporothrix schenkii B62482, pIC50 reported for this compound Cc1ccc2cc(C3=NCc4c(C)cccc4-n4cccc43)oc2c1 [Compound 140] : 6.23

For Clc1cccc2c1CN=C(c1ccc3ccccc3n1)c1cccn1-2 [Compound 197] the compound record lists Inf. A: Sporothrix schenkii B62482, pIC50 as 5.00

Count: 3. Required value per item: Inf. A: Sporothrix schenkii B62482, pIC50.
1. Cn1ccc2cc(C3=NCc4c(Cl)cc(Cl)cc4-n4cccc43)ccc21 [Compound 107]
2. CC(C)n1ccc(C2=NCc3cccc(Cl)c3-n3cccc32)cc1=O [Compound 71]
3. Clc1cccc2c1CN=C(c1ccc3occ(Cl)c3c1)c1cccn1-2 [Compound 152]

**A:**
[5.16, 5.42, 5.11]

---

test system: Trichophyton mentagrophytes; assay: Antifungal activity in vitro, resazurin growth inhibition: Trichophyton mentagrophytes (B70554); assay type: cell-based
The label depends only on Inf. G: Trichophyton mentagrophytes B70554, pIC50: criterion met if it is at least 6, criterion not met if it is smaller.

**Q:** Kindly determine if Inf. G: Trichophyton mentagrophytes B70554, pIC50 recorded for Clc1ccc2c(c1)-n1cccc1C(c1ccc3nc[nH]c3c1)=NC2 [Compound 204] is above or exactly 6.
**A:** criterion not met

**Q:** Record Cc1cccc2c1CNC(c1cc3cc(Cl)ccc3o1)c1cccn1-2.Cl (racemic) [Compound 34] ; criterion: Inf. G: Trichophyton mentagrophytes B70554, pIC50 no lower than 6. Met?
**A:** criterion met

**Q:** Check this molecule for Inf. G: Trichophyton mentagrophytes B70554, pIC50 at or above 6: Clc1cccc2c1-n1cccc1C(c1ccc3scc(Cl)c3c1)=NC2 [Compound 179]
**A:** criterion not met

**Q:** Check if Inf. G: Trichophyton mentagrophytes B70554, pIC50 >= 6 (inclusive). Item: FC(F)(F)c1nc2cc(C3=NCc4c(Cl)cccc4-n4cccc43)ccc2s1 [Compound 193]
**A:** criterion not met

**Q:** Reported Inf. G: Trichophyton mentagrophytes B70554, pIC50 at or above 6? Clc1cccc2c1-n1cccc1C(c1ccc3sccc3c1)=NC2 [Compound 174]
**A:** criterion met

Others:
**Q:** Form field: Inf. G: Trichophyton mentagrophytes B70554, pIC50 at least 6? Entry: Clc1cc(Cl)c2c(c1)-n1cccc1C(c1cc3ccccc3s1)=NC2 [Compound 168]
**A:** criterion met

**Q:** Answer whether Inf. G: Trichophyton mentagrophytes B70554, pIC50 of COc1cccc2cc(C3=NCc4c(C)cccc4-n4cccc43)oc12 [Compound 144] is greater than or equal to 6.
**A:** criterion met

**Q:** Please check the record Clc1cc(Cl)c2c(c1)-n1cccc1C(c1cc3ccccc3o1)=NC2 [Compound 120] and state if its Inf. G: Trichophyton mentagrophytes B70554, pIC50 is at or above 6.
**A:** criterion not met

**Q:** Check if Inf. G: Trichophyton mentagrophytes B70554, pIC50 >= 6 (inclusive). Item: Cc1ccc2cc(C3=NCc4c(F)cc(F)cc4-n4cccc43)ccc2n1 [Compound 114]
**A:** criterion not met

**Q:** Does FC(F)(F)c1ccc(C2=NCc3ccccc3-n3cccc32)cn1 [Compound 87] have a reported Inf. G: Trichophyton mentagrophytes B70554, pIC50 of at least 6?
**A:** criterion not met

**Q:** Determine whether this molecule has Inf. G: Trichophyton mentagrophytes B70554, pIC50 no lower than 6: CCc1ccc(C2=NCc3c(Cl)cc(Cl)cc3-n3cccc32)nc1 [Compound 73]
**A:** criterion not met

**Q:** # check: Inf. G: Trichophyton mentagrophytes B70554, pIC50 of Cl.FC(F)(F)c1ccc(C2NCc3c(Cl)cccc3-n3cccc32)nn1 (racemic) [Compound 28] is greater than or equal to 6
**A:** criterion not met

**Q:** Could you tell me if the measured Inf. G: Trichophyton mentagrophytes B70554, pIC50 of Cc1cccc2c1CNC(c1ccc(C(F)(F)F)nc1)c1cccn1-2.Cl (racemic) [Compound 18] reaches 6 or more?
**A:** criterion not met

**Q:** Given the entry COc1cccc2cc(C3NCc4ccc(Cl)cc4-n4cccc43)oc12.Cl (racemic) [Compound 42] , answer whether its Inf. G: Trichophyton mentagrophytes B70554, pIC50 meets or surpasses 6.
**A:** criterion not met

**Q:** Does the molecule c1ccc2c(c1)CN=C(c1cc3ccccc3o1)c1cccn1-2 [Compound 115] have recorded Inf. G: Trichophyton mentagrophytes B70554, pIC50 that is 6 or more?
**A:** criterion met

**Q:** Could you verify whether the entry Clc1cccc2c1CN=C(c1ccc3ccccc3n1)c1cccn1-2 [Compound 197] shows Inf. G: Trichophyton mentagrophytes B70554, pIC50 of no less than 6?
**A:** criterion not met

---

system: Trichophyton mentagrophytes; experiment: Antifungal activity in vitro, resazurin growth inhibition: Trichophyton mentagrophytes (B70554); assay type: cell-based
Would you mind telling me the reported Inf. G: Trichophyton mentagrophytes B70554, pIC50 of each entry?
Give bare numbers.

Here are 2 compounds together with their reported answers.
Notebook: Cc1ccc2cc(C3NCc4ccccc4-n4cccc43)oc2c1.Cl (racemic) , Inf. G: Trichophyton mentagrophytes B70554, pIC50 read as 5.22

Sample `FC(F)(F)c1cc(C2=NCc3ccc(Cl)cc3-n3cccc32)ccn1` ; Inf. G: Trichophyton mentagrophytes B70554, pIC50 observed: 4.48

Okay, here is my list. What is Inf. G: Trichophyton mentagrophytes B70554, pIC50 for each of these?
1. Fc1ccc2oc(C3=NCc4c(Cl)cc(Cl)cc4-n4cccc43)cc2c1
2. Clc1cccc2c1CN=C(c1ccc3ccoc3c1)c1cccn1-2
3. Cl.Clc1cccc2c1CNC(c1cc3ccccc3o1)c1cccn1-2 (racemic)
4. Cn1ccc2cc(C3=NCc4c(Cl)cccc4-n4cccc43)ccc21
5. Cc1cccc2c1-n1cccc1C(c1cc3ccccc3s1)=NC2
6. Cl.Clc1ccc2oc(C3NCc4c(Cl)cccc4-n4cccc43)cc2c1 (racemic)
7. Clc1cccc2c1-n1cccc1C(c1cc3ccccc3s1)=NC2
8. CCc1nc(C2=NCc3c(Cl)cc(Cl)cc3-n3cccc32)cs1

**A:**
[5.55, 6.15, 6.15, 5.51, 6.29, 5.70, 5.97, 5.48]

Please look at the items below and tell me Inf. G: Trichophyton mentagrophytes B70554, pIC50 for each one, in order.
1. Cl.FC(F)(F)c1ccc(C2NCc3c(Cl)cccc3-n3cccc32)cn1 (racemic)
2. Fc1cc(Cl)c2c(c1)-n1cccc1C(c1ccc(Cl)nc1)=NC2
3. Cl.FC(F)(F)c1ccc(C2NCc3ccccc3-n3cccc32)cn1 (racemic)
4. FC(F)(F)c1ncc(C2=NCc3ccccc3-n3cccc32)cn1
5. COc1ccc2oc(C3=NCc4c(Cl)cccc4-n4cccc43)cc2c1
6. CC(=O)c1ccc(C2=NCc3c(F)cc(F)cc3-n3cccc32)cn1
7. Fc1cc(F)c2c(c1)-n1cccc1C(c1ccc3sccc3c1)=NC2
8. Cc1cccc2oc(C3NCc4ccc(Cl)cc4-n4cccc43)cc12.Cl (racemic)

**A:**
1. 5.28
2. 4.47
3. 4.56
4. 5.57
5. 5.44
6. 5.92
7. 6.57
8. 4.41

For every listed record, write down its Inf. G: Trichophyton mentagrophytes B70554, pIC50.
1. Clc1ccc(C2=NCc3c(Cl)cccc3-n3cccc32)cn1
2. CCc1csc(C2=NCc3c(Cl)cccc3-n3cccc32)n1
3. Fc1cccc2c1CN=C(c1ccc(C(F)(F)F)nc1)c1cccn1-2
4. Fc1cccc2c1CN=C(c1cnc(Cl)c(Cl)c1)c1cccn1-2
5. Cc1nc2cc(C3=NCc4c(Cl)cccc4-n4cccc43)ccc2s1

**A:**
5.71
4.80
5.33
5.23
5.80

Give me Inf. G: Trichophyton mentagrophytes B70554, pIC50 for each of these compounds, listed below.
1. Clc1cccc2c1CN=C(c1cc3ccccc3s1)c1cccn1-2
2. Clc1ccc2c(c1)-n1cccc1C(c1cc3ccccc3s1)=NC2
3. Cc1ccc2oc(C3=NCc4c(Cl)cccc4-n4cccc43)cc2c1
4. Clc1ccc2c(c1)-n1cccc1C(c1cc3ccccc3o1)=NC2

**A:**
1: 5.86; 2: 5.52; 3: 6.66; 4: 6.62
